# Assayed system: T1, human TNFR2 on the surface of CHO-TNFR2 cells (human, UniProt P20333 23-461)
# T1 construct: whole, on cells
# T1 sequence (looked up): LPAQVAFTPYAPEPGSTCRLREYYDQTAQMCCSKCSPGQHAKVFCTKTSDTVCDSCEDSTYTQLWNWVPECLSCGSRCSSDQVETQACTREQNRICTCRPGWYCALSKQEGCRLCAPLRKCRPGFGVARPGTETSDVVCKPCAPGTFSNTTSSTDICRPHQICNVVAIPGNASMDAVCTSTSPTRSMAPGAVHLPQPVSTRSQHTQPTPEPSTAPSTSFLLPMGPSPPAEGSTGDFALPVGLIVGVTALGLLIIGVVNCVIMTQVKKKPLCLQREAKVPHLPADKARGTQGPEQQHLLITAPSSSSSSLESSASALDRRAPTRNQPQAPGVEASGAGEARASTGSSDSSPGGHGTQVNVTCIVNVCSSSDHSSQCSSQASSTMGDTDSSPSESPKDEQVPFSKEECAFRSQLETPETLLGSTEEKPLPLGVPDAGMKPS
# Assay details: competition flow cytometry on CHO-TNFR2 cells, competitor TNFα-biotin; AUC against 219-WT
Observed property: % Relative activity (WT antibody/test antibody) (%)
Value expressed in %; do not type the unit.

Known results for binders:
{"Binder": "219-Hu4 (antibody, V domains shown, also called VH6 + VL5) VH: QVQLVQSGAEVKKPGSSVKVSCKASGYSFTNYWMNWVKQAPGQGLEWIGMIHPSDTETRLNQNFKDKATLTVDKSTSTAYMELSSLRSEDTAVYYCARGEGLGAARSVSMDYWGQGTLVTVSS VL: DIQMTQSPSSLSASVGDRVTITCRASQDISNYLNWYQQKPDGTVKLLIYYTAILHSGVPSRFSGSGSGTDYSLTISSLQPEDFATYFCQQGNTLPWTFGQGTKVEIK", "Measurement unit": "%", "Endpoint result": 108}
{"Binder": "219-Hu5 (antibody, V domains shown, also called VH7 + VL5) VH: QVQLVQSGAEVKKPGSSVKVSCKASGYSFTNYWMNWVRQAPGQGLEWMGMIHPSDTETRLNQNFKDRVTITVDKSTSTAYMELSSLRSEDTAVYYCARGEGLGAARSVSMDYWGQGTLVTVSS VL: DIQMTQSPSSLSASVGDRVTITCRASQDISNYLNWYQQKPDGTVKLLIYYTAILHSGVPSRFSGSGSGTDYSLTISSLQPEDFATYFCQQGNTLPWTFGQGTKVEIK", "Measurement unit": "%", "Endpoint result": 109}

Determine its reported % Relative activity (WT antibody/test antibody): 219-Hu1 (antibody, V domains shown, also called VH3 + VL5) VH: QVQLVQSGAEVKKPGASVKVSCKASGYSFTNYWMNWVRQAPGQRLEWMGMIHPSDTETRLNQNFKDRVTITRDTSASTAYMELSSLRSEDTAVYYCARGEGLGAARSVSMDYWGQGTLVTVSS VL: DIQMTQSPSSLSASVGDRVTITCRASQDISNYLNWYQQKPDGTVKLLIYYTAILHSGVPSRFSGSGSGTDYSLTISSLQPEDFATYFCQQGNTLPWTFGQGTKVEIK
102
